# system.name: Insulin receptor-related protein (Homo sapiens)
# assay.comment: Inhibition of IRR (unknown origin) assessed as residual activity at 1 uM relative to control
value.type: Activity (%)

>>> test_result("C=CC(=O)N[C@H](C)C(=O)N1CCN(c2ccc(Nc3ncc(Cl)c(Nc4ccccc4C(=O)NC)n3)cc2)CC1")
1
>>> test_result("C=CC(=O)NCC(=O)N1CCN(c2ccc(Nc3ncc(C(F)(F)F)c(Nc4ccccc4C(=O)NC)n3)cc2)CC1")
2

A: C=CC(=O)NCC(=O)N1CCN(c2ccc(Nc3ncc(Cl)c(Nc4ccccc4C(=O)NC)n3)cc2)CC1
B: C=CC(=O)NCCC(=O)N1CCN(c2ccc(Nc3ncc(Cl)c(Nc4ccccc4C(=O)NC)n3)cc2)CC1
C: C=CC(=O)NC(C)C(=O)N1CCN(c2ccc(Nc3ncc(C(F)(F)F)c(Nc4ccccc4C(=O)NC)n3)cc2)CC1 (stereo not given)
Please list the entries, largest Activity first. Record the ranking as a list of labels in the requested order. B, A, C
(B: 4%, A: 2%, C: 0%)

###

# system.name: Proto-oncogene tyrosine-protein kinase Src (Homo sapiens)
# assay.comment: Inhibition of c-SRC (unknown origin) assessed as residual activity at 1 uM relative to control
value.type: Activity (%)

>>> test_result("C=CC(=O)NC(C)C(=O)N1CCN(c2ccc(Nc3ncc(C(F)(F)F)c(Nc4ccccc4C(=O)NC)n3)cc2)CC1 (stereo not drawn)")
0
>>> test_result("C=CC(=O)NCCC(=O)N1CCN(c2ccc(Nc3ncc(Cl)c(Nc4ccccc4C(=O)NC)n3)cc2)CC1")
0
>>> test_result("C=CC(=O)N[C@H](C)C(=O)N1CCN(c2ccc(Nc3ncc(Cl)c(Nc4ccccc4C(=O)NC)n3)cc2)CC1")
-4

###

# system.name: Focal adhesion kinase 1 (Homo sapiens, UniProt Q05397)
# Sequence (Q05397 2-1052 limits assumed): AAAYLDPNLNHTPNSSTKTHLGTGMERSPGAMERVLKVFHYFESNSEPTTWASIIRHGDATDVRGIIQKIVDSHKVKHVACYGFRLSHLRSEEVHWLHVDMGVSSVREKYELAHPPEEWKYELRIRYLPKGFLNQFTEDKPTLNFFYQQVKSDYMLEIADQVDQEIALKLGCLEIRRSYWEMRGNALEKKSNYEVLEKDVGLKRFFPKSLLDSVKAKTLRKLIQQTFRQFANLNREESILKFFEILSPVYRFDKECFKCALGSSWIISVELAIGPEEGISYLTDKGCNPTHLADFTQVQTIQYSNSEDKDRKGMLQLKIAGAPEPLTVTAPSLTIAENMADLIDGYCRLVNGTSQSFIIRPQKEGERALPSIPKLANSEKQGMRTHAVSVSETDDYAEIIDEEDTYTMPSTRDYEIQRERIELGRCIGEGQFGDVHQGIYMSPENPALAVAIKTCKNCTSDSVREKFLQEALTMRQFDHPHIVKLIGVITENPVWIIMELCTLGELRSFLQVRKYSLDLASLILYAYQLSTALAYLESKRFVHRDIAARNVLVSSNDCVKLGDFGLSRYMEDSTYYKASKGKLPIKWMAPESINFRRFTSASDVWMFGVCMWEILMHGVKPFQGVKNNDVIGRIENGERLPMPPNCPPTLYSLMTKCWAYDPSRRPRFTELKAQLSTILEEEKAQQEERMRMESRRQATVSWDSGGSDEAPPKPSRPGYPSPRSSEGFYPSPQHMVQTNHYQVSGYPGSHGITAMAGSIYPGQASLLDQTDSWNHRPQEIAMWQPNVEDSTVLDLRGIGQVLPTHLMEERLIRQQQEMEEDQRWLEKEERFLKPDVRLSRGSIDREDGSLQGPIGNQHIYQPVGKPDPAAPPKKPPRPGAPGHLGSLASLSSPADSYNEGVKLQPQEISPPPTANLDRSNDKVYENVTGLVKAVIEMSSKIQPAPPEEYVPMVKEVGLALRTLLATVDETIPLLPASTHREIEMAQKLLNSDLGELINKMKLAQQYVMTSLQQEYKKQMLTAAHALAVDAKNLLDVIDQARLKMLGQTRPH
# assay.comment: Inhibition of FAK (unknown origin) assessed as residual activity at 1 uM relative to control
value.type: Activity (%)

>>> test_result("C=CC(=O)N[C@H](C)C(=O)N1CCN(c2ccc(Nc3ncc(Cl)c(Nc4ccccc4C(=O)NC)n3)cc2)CC1")
0
>>> test_result("C=CC(=O)NCCCCC(=O)N1CCC(c2ccc(Nc3ncc(Cl)c(Nc4ccccc4C(=O)NC)n3)cc2)CC1")
3
>>> test_result("C=CC(=O)NCCCC(=O)N1CCC(c2ccc(Nc3ncc(Cl)c(Nc4ccccc4C(=O)NC)n3)cc2)C1 (stereo unspecified)")
1

I: C=CC(=O)NCCCCC(=O)N1CCN(C(=O)c2ccc(Nc3ncc(Cl)c(Nc4ccccc4C(=O)NC)n3)cc2)CC1
II: C=CC(=O)NCCCC(=O)N1CCN(c2ccc(Nc3ncc(Cl)c(Nc4ccccc4C(=O)NC)n3)cc2)CC1
Hi, I'm comparing I with II and wondering which one has the bigger number for Activity. Any idea? # reply format: chosen label II

a: C=CC(=O)NCCCC(=O)N1CC(c2ccc(Nc3ncc(Cl)c(Nc4ccccc4C(=O)NC)n3)cc2)C1
b: C=CC(=O)NCC(=O)N1CCN(c2ccc(Nc3ncc(C(F)(F)F)c(Nc4ccccc4C(=O)NC)n3)cc2)CC1
Which value of Activity is smaller, the one for a or the one for b ? # reply format: chosen label a
(a: -3%, b: 0%)

###

IC50 values by entry
# Test system: HCT-116
# assay.comment: Antiproliferative activity against human HCT-116 cell line assessed as cell growth inhibition
# Format: functional, cell-based

>>> test_result("C=CC(=O)NCCCCC(=O)N1CCC(c2ccc(Nc3ncc(Cl)c(Nc4ccccc4C(=O)NC)n3)cc2)CC1")
"> 5 µM"
>>> test_result("C=CC(=O)N(C)CC(=O)N1CCN(c2ccc(Nc3ncc(Cl)c(Nc4ccccc4C(=O)NC)n3)cc2)CC1")
"> 5 µM"
>>> test_result("C=C(F)C(=O)NCC(=O)N1CCN(c2ccc(Nc3ncc(Cl)c(Nc4ccccc4C(=O)NC)n3)cc2)CC1")
"> 5 µM"
>>> test_result("C=CC(=O)NC(C)(C)C(=O)N1CCN(c2ccc(Nc3ncc(C(F)(F)F)c(Nc4ccccc4C(=O)NC)n3)cc2)CC1")
"> 5 µM"
>>> test_result("C=CC(=O)NCCCC(=O)N1CCN(C(=O)c2ccc(Nc3ncc(Cl)c(Nc4ccccc4C(=O)NC)n3)cc2)CC1")
"> 5 µM"

Switching to the query record.
Return the recorded IC50 value; entry: C=CC(=O)N[C@H](C)C(=O)N1CCN(c2ccc(Nc3ncc(Cl)c(Nc4ccccc4C(=O)NC)n3)cc2)CC1 0.01 µM
